- System: Wolbachia pipientis
- assay-explanation: Anti-Wolbachia Cell-Based Screen
- Format: functional
- Set-up: scale not given: in the data most compounds retested in dose-response had high values
- conditions: 5 µM
Screen size: about 48,000 compounds; about 13,000 (27%) showed an effect of 50% or more. Some of the results follow.

{"molecule": "O=C(CSc1nc2c(cnn2CCO)c(=O)[nH]1)NC1CCCCC1", "Percent Effect / %": 119.1}
{"molecule": "CCn1cnnc1CCNCc1c[nH]nc1-c1ccc(F)cc1", "Percent Effect / %": -1.595}
{"molecule": "CC(NCC(=O)Nc1ccc(N2CCCCCC2)cc1)c1cccs1 (stereo not given)", "Percent Effect / %": 140.9}
{"molecule": "Cc1cc(C)n(CCNCc2cc(-c3ccccc3)c[nH]c2=O)n1", "Percent Effect / %": 81.59}
{"molecule": "O=C(Cc1cccs1)NCC(=O)Nc1cn[nH]c1", "Percent Effect / %": -3.119}
{"molecule": "CCN(CC)C(=O)CN(C)Cc1nc2c(cnn2C)c(=O)[nH]1", "Percent Effect / %": 2.851}
{"molecule": "O=C(NC1CCCCC1)c1c(F)cccc1F", "Percent Effect / %": -11.27}
{"molecule": "CCN(CC)Cc1ccccc1NC(=O)N(C)Cc1ccccc1O", "Percent Effect / %": -1.773}
{"molecule": "CC(NCC(=O)NCC(=O)Nc1ccc(F)cc1)c1cccs1 (stereo not given)", "Percent Effect / %": 91.77}
{"molecule": "CCCOc1ccc2c(c1)OCC(C(=O)NC(C)Cn1cccn1)=C2 (stereo not given)", "Percent Effect / %": 18.55}
{"molecule": "CCN(CC)C(=O)CSc1ccc(C(F)(F)F)cn1", "Percent Effect / %": 0.9721}
{"molecule": "N#Cc1cc(Cl)ccc1N1CCOC(C(N)=O)C1 (stereo not given)", "Percent Effect / %": -16.78}
{"molecule": "CCCC(=O)NCc1ccc(N2CCCCC2)cc1", "Percent Effect / %": -2.635}
{"molecule": "CC(C#N)CSc1ccccc1NCC(=O)NC1CCCCC1 (stereo not given)", "Percent Effect / %": -11.09}
{"molecule": "CCC(NC(=O)NCC(=O)Nc1ccc(F)cc1)c1ccncc1 (stereo not given)", "Percent Effect / %": 13.9}

----------
- Test system: Wolbachia pipientis
- assay-explanation: Anti-Wolbachia Cell-Based Screen
- Format: functional
- Design: scale not given: in the data most compounds retested in dose-response had high values
- conditions: 5 µM
In all, about 48,000 compounds went through this assay and about 13,000 (27%) showed an effect of 50% or more. The list shows a part of the results.
reported-property: Percent Effect (%)

{"compound": "CCCc1nnc(N[C@H](C)c2ccc(OC)cc2)o1", "unit-descriptor": "%", "observed": -12.73}
{"compound": "CN(C)c1ncnc2c1CCN(S(=O)(=O)c1cccc3nsnc13)C2", "unit-descriptor": "%", "observed": 10.74}
{"compound": "CN(C)Cc1cc(=O)n2c(n1)CN(CC1CCOCC1)CCC2", "unit-descriptor": "%", "observed": -13.06}
{"compound": "CC1(C)CNC(=O)c2nc(CCN3CCC(O)CC3)[nH]c2C1", "unit-descriptor": "%", "observed": -46.57}
{"compound": "CCN1C[C@H]2C3(CCN(C(=O)NC(C)C)CC3)CC[C@@]2(C(=O)N(C)C)C1.O=C(O)C(F)(F)F", "unit-descriptor": "%", "observed": -2.762}
{"compound": "CCN(CC)Cc1cc(=O)n2c(n1)CN(S(=O)(=O)C1CC1)CCC2.O=C(O)C(F)(F)F", "unit-descriptor": "%", "observed": 115.6}
{"compound": "O=C(c1cnc(Nc2ccccc2)nc1)N1CCCC2(CCNC2)C1 (configuration not stated)", "unit-descriptor": "%", "observed": -3.033}
{"compound": "Cc1nc(C)c(CC(=O)NCc2ccccc2F)s1", "unit-descriptor": "%", "observed": 8.727}
{"compound": "CN(C)Cc1cc(=O)n2c(n1)CN(S(=O)(=O)C1CC1)CCC2.O=C(O)C(F)(F)F", "unit-descriptor": "%", "observed": 96.54}
{"compound": "CN(CC(O)CO)c1nc(-c2cccnc2)nc2c1CCNC2 (configuration not stated)", "unit-descriptor": "%", "observed": 5.807}
{"compound": "COC(=O)CCN(C)C(=O)c1csc(Cc2ccccc2F)n1", "unit-descriptor": "%", "observed": 117.5}
{"compound": "Cc1ncc(CO)c(CN2CCCC2c2nc3c(C)cccc3[nH]2)c1O (configuration not stated)", "unit-descriptor": "%", "observed": 7.788}
{"compound": "CCNC(=O)CN(CC)C(=O)Cc1csc(C(C)C)n1", "unit-descriptor": "%", "observed": 11.15}
{"compound": "CCN(CC(=O)NC(C)C)C(=O)c1csc(Cc2ccccc2)n1", "unit-descriptor": "%", "observed": -19.99}
{"compound": "Cc1ccc(F)c(OC2CCCN(c3cnn(C)c3)C2=O)c1 (configuration not stated)", "unit-descriptor": "%", "observed": -6.274}
{"compound": "CC(C)N(C)Cc1nnc2n1CCN(S(=O)(=O)C1CC1)CC2.O=C(O)C(F)(F)F", "unit-descriptor": "%", "observed": -7.825}
{"compound": "CCn1nc(C(C)C)cc1C(=O)N1CC(OCc2ccccc2F)C1", "unit-descriptor": "%", "observed": -12.74}
{"compound": "COCCN(C)CCN1CC2(CCN(C3CCSC3)CC2)OC1=O (configuration not stated)", "unit-descriptor": "%", "observed": -12.17}
{"compound": "Cc1nn(C)cc1C(=O)NC(CC(C)C)C(=O)Nc1cc[nH]n1 (configuration not stated)", "unit-descriptor": "%", "observed": 1.449}
{"compound": "CN1CCC/C1=N\\S(=O)(=O)c1ccc(NC(=O)Cc2cccs2)cc1", "unit-descriptor": "%", "observed": 91.75}
{"compound": "Cc1cc(N2CCN(Cc3ccsc3)C(CCO)C2)nc(N)n1 (configuration not stated)", "unit-descriptor": "%", "observed": 18.89}
{"compound": "CCN(CC)CCN(C)c1nc(-c2ccc(Cl)cc2)nc2c1CNC2", "unit-descriptor": "%", "observed": -44.78}
{"compound": "CC(C)NC(=O)CNC(=O)c1csc(Cc2ccccc2F)n1", "unit-descriptor": "%", "observed": 109.5}
{"compound": "CC1(C)CNC(=O)c2nc(-c3nnc(-c4ccccc4)[nH]3)[nH]c2C1", "unit-descriptor": "%", "observed": 3.309}
{"compound": "CN(CCO)c1nc(-c2ccccn2)nc2c1CCNC2", "unit-descriptor": "%", "observed": -7.259}
{"compound": "NC(=O)c1ccc(-c2nc3c(c(=O)[nH]2)CCNC3)cc1", "unit-descriptor": "%", "observed": -6.229}
{"compound": "Cc1cc(NC(=O)C(C)N2CCN(c3nc(C)cs3)CC2)on1 (configuration not stated)", "unit-descriptor": "%", "observed": 1.656}
{"compound": "CC1(C)CNC(=O)c2nc(-c3n[nH]c(=O)[nH]3)[nH]c2C1", "unit-descriptor": "%", "observed": -9.314}
{"compound": "CC(C)N(C)Cc1cc(=O)n2c(n1)CN(S(=O)(=O)C1CC1)CCC2.O=C(O)C(F)(F)F", "unit-descriptor": "%", "observed": 109.3}
{"compound": "CCNC(=O)CN(CC)C(=O)c1csc(Cc2ccccc2F)n1", "unit-descriptor": "%", "observed": 97.94}
{"compound": "CN(CCCO)c1nc(-c2ccc(C(N)=O)cc2)nc2c1CCNC2", "unit-descriptor": "%", "observed": 101.5}
{"compound": "CC1(C)CNC(=O)c2nc(CCN3CCC(C(N)=O)CC3)[nH]c2C1", "unit-descriptor": "%", "observed": -47.56}

----------
- Tested on: Wolbachia pipientis
- assay-explanation: Anti-Wolbachia Cell-Based Screen
- Format: functional
- Design: scale not given: in the data most compounds retested in dose-response had high values
- conditions: 5 µM
About 13,000 (27%) of roughly 48,000 compounds showed an effect of 50% or more. The list shows a part of the results.
reported-property: Percent Effect (%)

{"molecule": "Cc1cc(C)n2c(CCCNS(=O)(=O)c3cccs3)nnc2n1", "unit-descriptor": "%", "observed": 99.96}
{"molecule": "CNC(=O)C1CCCN(C(=O)NCCC2Cc3ccccc3C2)C1 (centres undefined)", "unit-descriptor": "%", "observed": -25.4}
{"molecule": "Cc1cc(CNc2ccnn2C)ccc1-n1cncn1", "unit-descriptor": "%", "observed": 1.687}
{"molecule": "Cc1ccn(-c2ccc(C(=O)N3CCCC(C(N)=O)C3)cc2)n1 (centres undefined)", "unit-descriptor": "%", "observed": -6.024}
